Ref: ChEMBL document CHEMBL1201862

Test system: EKVX
procedure-summary: NCI tumour cell line growth inhibition, 48 h
Calls of active or inactive are those of the source. Cut-off read from the data, not from the text of the source: active = GI50 up to about 1.1 µM and inactive = higher.
Result category, one only: Y = active, N = inactive

>  <molecule>
COc1ccc(CC2C(=O)NC(C)C(=O)N(C)C3C(=O)N(C)C(Cc4ccc(O)c(c4)Oc4ccc(cc4)C3O)C(=O)NC(C)C(=O)NC(C)C(=O)N2C)cc1.COc1ccc(CC2C(=O)NC(C)C(=O)N(C)C3Cc4ccc(cc4)Oc4cc(ccc4O)CC(C(=O)NC(C)C(=O)NC(C)C(=O)N2C)N(C)C3=O)cc1 (stereo not drawn)

>  <class-label>
Y

$$$$
>  <molecule>
CCC1OC(=O)CC(O)C(C)C(OC2OC(C)C(O)C(N(C)C)C2O)C(CC=O)CC(C)C(=O)/C=C/C2(C)OC2C1C (stereo not drawn)

>  <class-label>
N

$$$$
>  <molecule>
CCOP(=O)(CC1OC(CO)C(O)C1O)OCC (stereo not drawn)

>  <class-label>
N

$$$$
>  <molecule>
O=C1c2cc(Cl)ccc2-n2c(noc2=O)C2CSCN12 (stereo not drawn)

>  <class-label>
N

$$$$
>  <molecule>
CC1C(/C=C/c2ccoc2)ON2CCCC12 (stereo not drawn)

>  <class-label>
N

$$$$
>  <molecule>
N#CC1C(=O)NC2=C(CCOc3c2ccc2ccccc32)C1c1ccc(F)cc1 (stereo not drawn)

>  <class-label>
N

$$$$

Please let me know the test result on file for CC1(c2ccc(Cl)cc2)c2ccccc2C(=O)N1CCCN1C(=O)c2ccccc2C1=O (stereo not drawn) .
N

Please let me know the test result on file for O=[N+]([O-])c1ccc(Cl)cc1N/N=C/c1cccc2cccnc12 .
N

---

Tested on: T47D
procedure-summary: NCI tumour cell line growth inhibition, 48 h
Activity calls are given as the source filed them. Rule as the data show it: active = GI50 up to about 1.1 µM and inactive = higher.
Please provide measured GI50 for the entries that follow.

Completed entries (count: 5):
>  <compound>
COc1ccc(-n2c(-c3ccccc3)cc(-c3cccs3)c2-c2cccs2)cc1

>  <value>
26.5 µM (inactive)

$$$$
>  <compound>
[N-]=[N+]=NC1C(O)C(CO)OC1n1ccc(=O)[nH]c1=O (configuration not stated)

>  <value>
> 875 µM (inactive)

$$$$
>  <compound>
C/C(=N\NC(=O)N/N=C(\C)c1ccccn1)c1ccccn1

>  <value>
35.2 µM (inactive)

$$$$
>  <compound>
COc1cc2c(c(OC)c1OC)-c1ccc(OC)c(=O)cc1C(NC(=O)COc1ccccc1)CC2 (configuration not stated)

>  <value>
39.9 µM (inactive)

$$$$
>  <compound>
Cc1ccc(S(=O)(=O)OCC(=O)O)cc1

>  <value>
> 100 µM (inactive)

$$$$

# batch size: 5; output GI50 per entry
1. CCOP(=O)(/C=C/n1ccc(=O)[nH]c1=O)OCC
2. O=C1N/C(=N/N=C/C(O)C(O)C(O)C(O)CO)N/C1=C\c1cccs1 (configuration not stated)
3. c1cn(C23C4C5C6C4C2C6C53)cn1 (configuration not stated)
4. Oc1ccccc1/C=N/N1C(=S)N(C23CC4CC(CC(C4)C2)C3)C(=N\c2ccccc2)/C1=N/c1ccccc1
5. COc1ccc(Oc2ccc3cc4c(cc3c2O)OCO4)c2cc(C)oc12

["> 100 µM (inactive)", "93.8 µM (inactive)", "> 100 µM (inactive)", "9.35 µM (inactive)", "12.3 µM (inactive)"]

# batch size: 2; output GI50 per entry
1. C[C@@H]1CC(=O)C[C@@H]2CC[C@H]3[C@@H]4CC[C@H](OC(=O)c5cccc6cc7ccccc7nc56)[C@H]4CC[C@@H]3[C@H]21
2. O=C1NC2(CN3CCC2CC3)C(=O)N1CN(Cc1ccccc1)c1ccccc1 (configuration not stated)

["13.7 µM (inactive)", "39 µM (inactive)"]

---

Test system: NCI-H226
procedure-summary: NCI tumour cell line growth inhibition, 48 h
Active and inactive are the calls of the source. Rule as the data show it: active = GI50 up to about 1.1 µM and inactive = higher.
endpoint-name: GI50

Completed entries (count: 4):
>  <compound>
S=C1/C(=N/c2ccccc2)N(C2CCCCC2)/C(=N\C2CCCCC2)N1c1ccccc1

>  <GI50>
> 100 µM (inactive)

$$$$
>  <compound>
c1ccc2c(c1)nc1n2CSC1

>  <GI50>
> 100 µM (inactive)

$$$$
>  <compound>
CCCCCCCCCCCCOCCOCCOCCOCCOCCOCC(=O)NC(Cc1ccccc1)C(=O)Oc1ccc([N+](=O)[O-])cc1 (stereo not given)

>  <GI50>
59 µM (inactive)

$$$$
>  <compound>
N/C(=N\c1c([N+](=O)[O-])cnc2ccccc12)N1CCOCC1

>  <GI50>
> 100 µM (inactive)

$$$$

// below: GI50 requested for another compound
What does the data say about its GI50? Entry: COc1ccc(Nc2nc3ccccc3nc2C(=O)O)cc1OC
57 µM (inactive)

---

System: ACHN
procedure-summary: NCI tumour cell line growth inhibition, 48 h
Active and inactive are the calls of the source. No stated cut-off is given here; in the data, active = GI50 up to about 1.1 µM and inactive = higher.
Please provide measured GI50 for the entries that follow.

Completed entries (count: 4):
>  <molecule>
CCCCNC(=O)OCCN=C1c2ccccc2C(Br)C(Br)c2ccccc21 (stereo not given)

>  <target-or-test-system>
ACHN

>  <GI50>
24.2 µM (inactive)

$$$$
>  <molecule>
CNC(=O)OCc1nc(SC(C)C)n(C)c1COC(=O)NC

>  <target-or-test-system>
ACHN

>  <GI50>
> 100 µM (inactive)

$$$$
>  <molecule>
C=C1C(=O)O[C@H]2[C@H]3O[C@@H](C[C@@H]12)[C@](C)(O)CCCC(C)=CCC[C@H]3C

>  <target-or-test-system>
ACHN

>  <GI50>
10.1 µM (inactive)

$$$$
>  <molecule>
C=C1c2nc3ccccc3n2C=C(c2ccc(OC)cc2)N1c1ccc(OC)cc1

>  <target-or-test-system>
ACHN

>  <GI50>
7.16 µM (inactive)

$$$$

# batch size: 4; output GI50 per entry
1. CC1(C)CC(=O)C(=CN2C(=O)CNC2=S)C(=O)C1
2. O=C1NC2CCCCCC2C12CCCCC2 (stereo not given)
3. COc1cc(/C=C\C(=O)O)ccc1OCc1ccccc1
4. COC(=O)c1cc2c3c(cc(N(C)C)c2[nH]1)N(C(=O)c1cc2cc(OC)c(OC)c(OC)c2[nH]1)CC3CCl (stereo not given)

1: > 100 µM (inactive); 2: > 100 µM (inactive); 3: > 100 µM (inactive); 4: < 0.0025 µM (active)

# batch size: 2; output GI50 per entry
1. CC1NOC(=O)C1/N=N/c1ccccc1Br (stereo not given)
2. C=CCN(C(=O)OC(C)(C)C)C1=CC2C(C)=CN(S(=O)(=O)c3ccccc3)C2C(OCc2ccccc2)=C1 (stereo not given)

1: 35.3 µM (inactive); 2: > 100 µM (inactive)

---

Please provide measured GI50 for the entries that follow.
System: SNB-19
procedure-summary: NCI tumour cell line growth inhibition, 48 h
The source made the active and inactive calls. Rule as the data show it: active = GI50 up to about 1.1 µM and inactive = higher. Where a SMILES comes first, the peptide text is derived from it.

>  <compound>
CCN(CC)c1ccc2cc(-c3nnc(-c4ccccc4)o3)c(=O)oc2c1

>  <target-or-test-system>
SNB-19

>  <GI50>
25.9 µM (inactive)

$$$$
>  <compound>
FC(F)(F)c1ccc2c(c1)nc(Cc1ccc(Cl)c(Cl)c1)n2CC1CCCN2CCCCC12 (stereo not given)

>  <target-or-test-system>
SNB-19

>  <GI50>
18.9 µM (inactive)

$$$$
>  <compound>
O=C(c1cccc2ccccc12)C1S(=O)(=O)OCCOS1(=O)=O

>  <target-or-test-system>
SNB-19

>  <GI50>
> 100 µM (inactive)

$$$$
>  <compound>
COC(=O)C1=C(C)N(NC(N)=O)C(C)(O)C12CCOC2=O (stereo not given)

>  <target-or-test-system>
SNB-19

>  <GI50>
> 100 µM (inactive)

$$$$
>  <compound>
CC12CCC([C@H](C(O)C3CCCCC3)C1=O)C2(C)C (stereo not given in full)

>  <target-or-test-system>
SNB-19

>  <GI50>
> 100 µM (inactive)

$$$$
>  <compound>
c1ccc(N/N=C2\NN=C(c3ccccc3)CS2)cc1

>  <target-or-test-system>
SNB-19

>  <GI50>
19.3 µM (inactive)

$$$$
>  <compound>
O=c1sc(Nc2ccc3ccccc3c2Cl)nc2ccccc12

>  <target-or-test-system>
SNB-19

>  <GI50>
> 100 µM (inactive)

$$$$
>  <compound>
CC1(C)CC(=O)C(=CN2C(=O)CNC2=S)C(=O)C1

>  <target-or-test-system>
SNB-19

>  <GI50>
> 100 µM (inactive)

$$$$

# batch size: 6; output GI50 per entry
1. CCOC(=O)c1sc2c(c1OC(=O)c1ccc(OC)cc1)c(=O)n(-c1ccccc1)c(=S)n2-c1ccccc1
2. CN1c2ccccc2N(C(=O)c2ccc([N+](=O)[O-])cc2)C(CC(=O)O)c2cccn21 (stereo not given)
3. COc1ccc(C2ON(c3cccc(C)n3)CC=C2C)cc1 (stereo not given)
4. CCC(C)C(NC(=O)C1CCCN1C(=O)C(CC(C)C)NC(=O)C(CC(C)C)NC(=O)C(N)CC(C)C)C(=O)NC(C(=O)NCC(=O)NC(CC(N)=O)C(=O)NC(CC(C)C)C(=O)NC(CC(C)C)C(=O)NC(CC(C)C)C(N)=O)C(C)C (stereo not given) (H-LLLPIVGNLLL-NH2; configuration not given here)
5. COc1ccc(-c2cc(O)c3cc4c(cc3n2)OCO4)c(OC)c1
6. Cn1nc(-c2ccccc2)c(C(=O)/C=C/c2ccc(Cl)cc2)c(N2CCCCC2)c1=O

1: > 100 µM (inactive); 2: > 100 µM (inactive); 3: 97.1 µM (inactive); 4: > 50 µM (inactive); 5: 67.6 µM (inactive); 6: 2.14 µM (inactive)

# batch size: 6; output GI50 per entry
1. Cc1ccc(S(=O)(=O)NC(=O)C2=C(c3ccccc3)[N-]N(C)c3nc4cccc[n+]4nc32)cc1
2. C\C=C/C=C/C=C/C(=O)O
3. COC(CC1(/C=C/O[Si](C(C)C)(C(C)C)C(C)C)C(=O)N(COCC[Si](C)(C)C)c2ccccc21)OC (stereo not given)
4. CC1CCCC(C(O)CC2CC(=O)N(c3ccccc3)C(=O)C2)C1=O (stereo not given)
5. CC(=O)NNc1nc(C)c(C(=O)NNC(=O)C(=O)Nc2ccc(C)c(C)c2)s1
6. c1cn(C23C4C5C6C4C2C6C53)cn1 (stereo not given)

["> 100 µM (inactive)", "> 100 µM (inactive)", "33.7 µM (inactive)", "> 100 µM (inactive)", "> 100 µM (inactive)", "> 100 µM (inactive)"]
